# TESTED_SYSTEM: SARS-COV-2 M^pro (authentic N- and C-termini) (Severe acute respiratory syndrome coronavirus 2)
# ASSAY: biochemical
# Assay type: biochemical
# RUN_PARAMETERS: Morrison equation; read-out: apparent Ki against M^pro
MEASURED_ENDPOINT: Ki (nM)
State the answer as a number, implicitly in nM.

| COMPOUND | Ki, nM |
| --- | --- |
| COc1cc(-c2cccc3[nH]ncc23)cc(C=O)c1OCC(=O)N1CCC(Oc2cccc(C(=O)N(C)C)c2)C1 (centres unmarked) | 24.4 |

Now for another entry.
# get_value(readout='Ki', item= `COc1cc(-c2cccc3[nH]ncc23)cc(C=O)c1OCC(=O)N(C)C` )
64.8
